This document collects IC50 values reported for Cytochrome P450 2C19 (Homo sapiens, UniProt P33261).
readout_label: IC50 (µM)

chem_smiles=Fc1cc(OC(F)(F)C(F)F)cc([C@@](Cc2ccccc2)(Nc2nc3c(F)cc(F)cc3[nH]2)c2ccc(Cl)cn2)c1 unit_spec=µM censoring_sign== measured_result=3
chem_smiles=Cc1sc(N[C@](Cc2ccccc2)(c2cc(F)cc(OC(F)(F)C(F)F)c2)c2ccc(Cl)cn2)nc1C(F)(F)F unit_spec=µM censoring_sign=> measured_result=40
chem_smiles=Fc1cc(OC(F)(F)C(F)F)cc([C@@](Cc2ccccc2)(Nc2nc(C(F)(F)F)c(Br)s2)c2ccc(Cl)cn2)c1 unit_spec=µM censoring_sign=> measured_result=40
chem_smiles=O=C(NC1CCCC1)N[C@@](Cc1ccccc1)(c1cc(F)cc(OC(F)(F)C(F)F)c1)c1ccc(Cl)cn1 unit_spec=µM censoring_sign== measured_result=17
